- System: guinea pig tracheal chain preparation
- protocol text: SP: spasmolytic activity in vitro, guinea pig tracheal chain preparation
- condition info: Cavia porcellus, read-out: SP in vitro C, molar concentration required to produce maximum relaxation
Decide by EC (maximum relaxation): equal to or exceeding 1000 µM means y, less means n.

Would you say COC(=O)n1cnc2c1c(=O)n(C)c(=O)n2CC(C)C shows EC (maximum relaxation) at minimum 1000 µM? n

Would you say CCC(C)Cn1c(=O)n(C)c(=O)c2c1ncn2C(=O)OC (stereo not drawn) shows EC (maximum relaxation) at minimum 1000 µM? y

Would you say COC(=O)n1c(C)nc2c1c(=O)n(C)c(=O)n2C shows EC (maximum relaxation) at minimum 1000 µM? y

Would you say COC(=O)n1cnc2c1c(=O)n(C)c(=O)n2C shows EC (maximum relaxation) at minimum 1000 µM? y
